- Assay system: Metabotropic glutamate receptor 1 (Homo sapiens)
- Sequence (Q13255 whole entry): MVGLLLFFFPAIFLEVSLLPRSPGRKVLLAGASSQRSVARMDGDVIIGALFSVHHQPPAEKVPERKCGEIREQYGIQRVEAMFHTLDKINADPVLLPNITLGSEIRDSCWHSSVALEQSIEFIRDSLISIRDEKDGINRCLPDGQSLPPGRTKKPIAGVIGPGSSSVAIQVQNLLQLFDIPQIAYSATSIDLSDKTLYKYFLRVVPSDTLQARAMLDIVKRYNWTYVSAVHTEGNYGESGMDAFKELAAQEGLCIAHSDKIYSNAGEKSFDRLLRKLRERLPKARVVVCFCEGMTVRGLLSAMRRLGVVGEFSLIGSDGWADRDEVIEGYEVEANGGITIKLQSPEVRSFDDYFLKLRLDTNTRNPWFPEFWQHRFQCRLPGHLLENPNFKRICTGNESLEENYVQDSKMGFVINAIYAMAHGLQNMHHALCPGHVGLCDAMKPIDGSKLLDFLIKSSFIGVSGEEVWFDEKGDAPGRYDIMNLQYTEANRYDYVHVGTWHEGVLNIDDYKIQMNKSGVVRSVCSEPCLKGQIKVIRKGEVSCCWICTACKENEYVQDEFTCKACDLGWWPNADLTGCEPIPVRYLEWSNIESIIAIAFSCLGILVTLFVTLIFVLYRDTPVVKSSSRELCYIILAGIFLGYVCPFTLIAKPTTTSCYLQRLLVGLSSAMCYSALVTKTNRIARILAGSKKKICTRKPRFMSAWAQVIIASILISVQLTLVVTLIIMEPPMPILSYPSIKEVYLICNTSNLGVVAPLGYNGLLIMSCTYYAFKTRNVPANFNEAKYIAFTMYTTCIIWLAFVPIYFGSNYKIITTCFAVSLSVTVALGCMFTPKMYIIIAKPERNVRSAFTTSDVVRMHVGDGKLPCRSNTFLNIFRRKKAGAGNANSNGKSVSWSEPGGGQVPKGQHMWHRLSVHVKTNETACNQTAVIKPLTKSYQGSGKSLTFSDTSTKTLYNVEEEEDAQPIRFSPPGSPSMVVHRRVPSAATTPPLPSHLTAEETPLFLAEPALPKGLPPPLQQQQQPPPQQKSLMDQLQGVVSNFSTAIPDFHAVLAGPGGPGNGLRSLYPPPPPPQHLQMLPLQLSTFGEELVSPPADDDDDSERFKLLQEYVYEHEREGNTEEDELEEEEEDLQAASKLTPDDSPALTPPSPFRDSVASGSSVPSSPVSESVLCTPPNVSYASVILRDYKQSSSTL
- Method description: Negative allosteric modulation of human mGluR1 expressed in HEK293A cells assessed as inhibition of glutamate-induced calcium mobilization
pIC50: −log10 of the molar value.

| Compound | Assay system | pIC50 |
| --- | --- | --- |
| C[C@@H]1CN(c2ccccn2)CCN1C(=O)C1CC1 | Metabotropic glutamate receptor 1 (Homo sapiens) | < 4.50 |
| C[C@@H]1CN(C(=O)C23CC4CC(CC(C4)C2)C3)CCN1c1ccncc1 | Metabotropic glutamate receptor 1 (Homo sapiens) | < 4.50 |
| C[C@@H]1CN(C(=O)C23C4C5C6C4C2C6C53)CCN1c1ccccn1 (stereo partly drawn) | Metabotropic glutamate receptor 1 (Homo sapiens) | < 4.50 |
| C[C@@H]1CN(C(=O)C2CCCCC2)CCN1c1ccccn1 | Metabotropic glutamate receptor 1 (Homo sapiens) | < 4.50 |
| C[C@@H]1CN(c2ccccn2)CCN1C(=O)C(C)(C)C | Metabotropic glutamate receptor 1 (Homo sapiens) | < 4.50 |
| C[C@@H]1CN(C(=O)C(C)(C)C)CCN1c1ccccn1 | Metabotropic glutamate receptor 1 (Homo sapiens) | < 4.50 |
| C[C@@H]1CN(C(=O)C2CC2)CCN1c1ccccn1 | Metabotropic glutamate receptor 1 (Homo sapiens) | < 4.50 |
| C[C@@H]1CN(C(=O)[C@H]2CC[C@H](C)CC2)CCN1c1ccccn1 | Metabotropic glutamate receptor 1 (Homo sapiens) | < 4.50 |
